# assay name: Oral bioavailability in Sprague-Dawley rat at 10 mg/kg measured for 24 hrs by LC-MS/MS analysis
# Assay type: ADME, organism-based
# details: in vivo
measured attribute: bioavailability (%)
Give bare numbers, in %.

Problem: What does the data say about its bioavailability? Entry: COc1ccc(CN2C3CC2CN(c2ccc(-c4cc(N5CCC(N6CCN(CCCC#Cc7cccc8c7CN(C7CCC(=O)NC7=O)C8=O)CC6)CC5)cn5ncc(C#N)c45)cn2)C3)cn1 (stereo unspecified)
Result: 40.3

---

# assay name: Tmax in Sprague-Dawley rat at 10 mg/kg, po measured for 24 hrs by LC-MS/MS analysis
# Assay type: ADME, organism-based
# details: in vivo
measured attribute: Tmax

Problem: What does the data say about its Tmax? Entry: COc1ccc(CN2C3CC2CN(c2ccc(-c4cc(N5CCC(N6CCN(CCCC#Cc7cccc8c7CN(C7CCC(=O)NC7=O)C8=O)CC6)CC5)cn5ncc(C#N)c45)cn2)C3)cn1 (stereo unspecified)
Result: 2 h

---

# Tested on: BaF3
# assay name: PROTAC activity at CRBN/KIF5B-RET (unknown origin) expressed in mouse BaF3 cells assessed as induction of RET degradation at 10 nM incubated for 24 hrs by immunoblot analysis relative to control
# Type: cell-based
measured attribute: Activity (%)
Give bare numbers, in %.

COc1ccc(CN2C3CC2CN(c2ccc(-c4cc(N5CCN(C6CCN(c7ccc8c(c7)C(=O)N(C7CCC(=O)NC7=O)C8=O)CC6)CC5)cn5ncc(C#N)c45)cn2)C3)cn1 (stereo not given)    36
COc1ccc(CN2C3CC2CN(c2ccc(-c4cc(N5CCN(C(=O)CCCNc6ccc7c(c6)C(=O)N(C6CCC(=O)NC6=O)C7=O)CC5)cn5ncc(C#N)c45)cn2)C3)cn1 (stereo not given)    41
COc1ccc(CN2C3CC2CN(c2ccc(-c4cc(N5CCC(N6CCN(C(=O)CCCCCNc7cccc8c7C(=O)N(C7CCC(=O)NC7=O)C8=O)CC6)CC5)cn5ncc(C#N)c45)cn2)C3)cn1 (stereo not given)    72

// for each compound below, give its Activity
1. COc1ccc(CN2C3CC2CN(c2ccc(-c4cc(N5CCC(N6CCN(C(=O)CNc7cccc8c7C(=O)N(C7CCC(=O)NC7=O)C8=O)CC6)CC5)cn5ncc(C#N)c45)cn2)C3)cn1 (stereo not given)
2. COc1ccc(CN2C3CC2CN(c2ccc(-c4cc(N5CCN(C(=O)CCCCCNc6ccc7c(c6)C(=O)N(C6CCC(=O)NC6=O)C7=O)CC5)cn5ncc(C#N)c45)cn2)C3)cn1 (stereo not given)

Result:
36
49

---

# assay name: AUC (0 to infinity) in Sprague-Dawley rat at 1 mg/kg, iv measured for 24 hrs by LC-MS/MS analysis
# Type: ADME, organism-based
# details: in vivo
measured attribute: AUC(0-inf) (ng·h/mL)
Numbers only, in ng·h/mL.

Problem: What does the data say about its AUC(0-inf)? Entry: COc1ccc(CN2C3CC2CN(c2ccc(-c4cc(N5CCC(N6CCN(CCCC#Cc7cccc8c7CN(C7CCC(=O)NC7=O)C8=O)CC6)CC5)cn5ncc(C#N)c45)cn2)C3)cn1 (stereo unspecified)
Result: 295

---

# assay name: Cytotoxicity against human HEK293 cells
# Format: toxicity, cell-based
measured attribute: IC50

Problem: What does the data say about its IC50? Entry: COc1ccc(CN2C3CC2CN(c2ccc(-c4cc(N5CCC(N6CCN(CCCC#Cc7cccc8c7CN(C7CCC(=O)NC7=O)C8=O)CC6)CC5)cn5ncc(C#N)c45)cn2)C3)cn1 (stereo unspecified)
Result: > 5 µM
